Data origin: patent US11236087B2

Test: Cell viability assay (AlamarBlue) in HepAD38 cells
Details: human
Please go through the items and note down their CC50 at 6 days.

For this compound ( "COCC1(N(C)C(=O)c2n[nH]c3c2CN(C(=O)c2cc4c(C(C)(F)F)cc(F)cc4[nH]2)CC3)CC1" ), measured CC50 at 6 days is > 10 µM

For this compound ( "O=C(c1cc2c(Cl)cccc2[nH]1)N1CCc2n[nH]c(C3CCC3)c2C1" ), measured CC50 at 6 days is > 10 µM

For this compound ( "CON(C)C(=O)c1n[nH]c2c1CN(C(=O)c1cc3c(C)cccc3[nH]1)CC2" ), measured CC50 at 6 days is > 100 µM

For this compound ( O=C(c1cc2c(F)cc(F)cc2[nH]1)N1C2CCC1c1cn[nH]c1C2 (stereo not shown) ), measured CC50 at 6 days is > 100 µM

====

Experiment: Cell viability assay (AlamarBlue) in HepAD38 cells
Details: human
measured parameter: CC50 at 6 days

For this molecule ( CN(CC1CCOC1)C(=O)c1n[nH]c2c1CN(C(=O)c1cc3ccccc3[nH]1)CC2 (stereo not drawn) ), measured CC50 at 6 days is > 100 µM

For this molecule ( "CCc1cc(F)cc2[nH]c(C(=O)N3CCc4n[nH]c(-c5cscn5)c4C3)cc12" ), measured CC50 at 6 days is > 10 µM

For this molecule ( "[2H]C([2H])([2H])N(C(=O)c1n[nH]c2c1CN(C(=O)c1cc3ccccc3[nH]1)CC2)C1(COC)CC1" ), measured CC50 at 6 days is > 10 µM

For this molecule ( CC1c2c(-c3cscn3)n[nH]c2CCN1C(=O)c1cc2c(Cl)cc(F)cc2[nH]1 (stereo not drawn) ), measured CC50 at 6 days is > 32 µM

For this molecule ( "CN(C(=O)c1n[nH]c2c1CN(C(=O)c1cc3ccccc3[nH]1)CC2)C1(COCC(F)(F)F)CC1" ), measured CC50 at 6 days is > 10 µM

For this molecule ( "O=C(c1cc2c(Cl)cc(F)cc2[nH]1)N1CCc2[nH]nc(-c3cscn3)c2C1" ), measured CC50 at 6 days is > 100 µM

For this molecule ( "O=C(c1cc2ccccc2[nH]1)N1CCc2[nH]nc(C(=O)N3CCSCC3)c2C1" ), measured CC50 at 6 days is > 10 µM

For this molecule ( "CN(Cc1cn(C)nn1)C(=O)c1n[nH]c2c1CN(C(=O)c1cc3ccccc3[nH]1)CC2" ), measured CC50 at 6 days is > 10 µM

For this molecule ( "CN(C(=O)c1n[nH]c2c1CN(C(=O)c1cc3ccccc3[nH]1)CC2)C1(CCC(=O)O)CC1" ), measured CC50 at 6 days is > 10 µM

For this molecule ( "CC(C)[C@H](N)C(=O)OCCN(C)C(=O)c1n[nH]c2c1CN(C(=O)c1cc3ccccc3[nH]1)CC2" ), measured CC50 at 6 days is > 32 µM

For this molecule ( "CCOC(=O)CCC1(N(C)C(=O)c2n[nH]c3c2CN(C(=O)c2cc4ccccc4[nH]2)CC3)CC1" ), measured CC50 at 6 days is > 10 µM

For this molecule ( "O=C(c1cc2ccccc2[nH]1)N1CCc2[nH]nc(C(=O)N3C[C@H]4CCO[C@H]4C3)c2C1" ), measured CC50 at 6 days is > 10 µM

For this molecule ( "CON(C)C(=O)c1n[nH]c2c1CN(C(=O)c1cc3c(F)ccc(F)c3[nH]1)CC2" ), measured CC50 at 6 days is > 100 µM

For this molecule ( "CN(CCO)C(=O)c1n[nH]c2c1CN(C(=O)c1cc3c(F)c(F)ccc3[nH]1)CC2" ), measured CC50 at 6 days is > 100 µM

For this molecule ( "Cc1cc(F)cc2[nH]c(C(=O)N3CCc4[nH]nc(C(=O)N(C)C5(CO)CC5)c4C3)cc12" ), measured CC50 at 6 days is > 10 µM

====

Please go through the items and note down their CC50 at 6 days.
Experiment: Cell viability assay (AlamarBlue) in HepAD38 cells
Conditions: human

For this compound ( CCOC(=O)c1n[nH]c2c1CN(C(=O)c1cc3ccccc3[nH]1)CC2 [Example 140] ), measured CC50 at 6 days is > 100 µM

For this compound ( CN(C(=O)c1[nH]nc2c1CN(C(=O)c1cc3c(Cl)c(F)ccc3[nH]1)CC2)C1CC1 [Example 324] ), measured CC50 at 6 days is > 10 µM

For this compound ( CC(=O)N1CCN(C(=O)c2[nH]nc3c2CN(C(=O)c2cc4ccccc4[nH]2)CC3)C2(CC2)C1 [Example 236] ), measured CC50 at 6 days is > 10 µM

For this compound ( O=C(c1cc2ccccc2[nH]1)N1CCc2[nH]nc(C(=O)N3CCC[C@@H](O)C3)c2C1 [Example 161] ), measured CC50 at 6 days is > 10 µM

For this compound ( CC(C)(C)OC(=O)N[C@@H]1CCN(C(=O)c2n[nH]c3c2CN(C(=O)c2cc4ccccc4[nH]2)CC3)C1 [Example 191] ), measured CC50 at 6 days is > 10 µM

For this compound ( Cc1cccc2[nH]c(C(=O)N3CCc4[nH]nc(C(=O)N(C)OCCO)c4C3)cc12 [Example 197] ), measured CC50 at 6 days is > 10 µM

For this compound ( O=C(c1cc2c(F)c(F)ccc2[nH]1)N1CCc2n[nH]c(-c3cscn3)c2C1 [Example 22] ), measured CC50 at 6 days is > 10 µM

For this compound ( CC(O)c1cccc2[nH]c(C(=O)N3CCc4[nH]nc(C(=O)N(C)CCO)c4C3)cc12 (centres unmarked) [Example 50] ), measured CC50 at 6 days is > 32 µM

====

Assay: Cell viability assay (AlamarBlue) in HepAD38 cells
Conditions: human
measured parameter: CC50 at 6 days

For this compound ( "CCc1cccc2[nH]c(C(=O)N3CCc4[nH]nc(C56CC(C5)C6)c4C3)cc12" ), measured CC50 at 6 days is > 10 µM

For this compound ( "CN(CCO)C(=O)c1n[nH]c2c1CN(C(=O)c1cc3c(Cl)cc(F)cc3[nH]1)CC2" ), measured CC50 at 6 days is > 32 µM

For this compound ( "CN(C(=O)c1n[nH]c2c1CN(C(=O)c1cc3ccccc3[nH]1)CC2)C1(CCC(N)=O)CC1" ), measured CC50 at 6 days is > 10 µM

For this compound ( "COCC1(N(C)C(=O)c2n[nH]c3c2CN(C(=O)c2cc4ccc(F)cc4[nH]2)CC3)CC1" ), measured CC50 at 6 days is > 10 µM

For this compound ( "CN(C(=O)c1[nH]nc2c1CN(C(=O)c1cc3c(Cl)cccc3[nH]1)CC2)C1CC1" ), measured CC50 at 6 days is > 10 µM

For this compound ( "O=C(NCCCO)c1n[nH]c2c1CN(C(=O)c1cc3ccccc3[nH]1)CC2" ), measured CC50 at 6 days is > 100 µM

For this compound ( "CN(CC1(O)CCC1)C(=O)c1n[nH]c2c1CN(C(=O)c1cc3ccccc3[nH]1)CC2" ), measured CC50 at 6 days is > 10 µM

For this compound ( "CCc1c(F)ccc2[nH]c(C(=O)N3CCc4n[nH]c(-c5cscn5)c4C3)cc12" ), measured CC50 at 6 days is > 10 µM

====

Biological target: HBV core protein (UniProt P03146)
Construct: fused on or other part: BODIPY-FL maleimide label on the C-terminal Cys150
Sequence (P03146 whole entry, looked up, the tested form may be a part): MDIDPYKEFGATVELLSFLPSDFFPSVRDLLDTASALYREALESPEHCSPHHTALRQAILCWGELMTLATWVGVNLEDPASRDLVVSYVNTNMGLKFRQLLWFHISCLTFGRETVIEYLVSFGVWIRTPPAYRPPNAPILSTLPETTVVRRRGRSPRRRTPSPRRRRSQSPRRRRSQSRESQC
Test: Biochemical capsid assembly assay (fluorescence quenching)
Parameters: species or system hepatitis B virus
Settings: read-out: Assembly Activity (IC50); BODIPY-FL labelled core protein, 300 μM NaCl, read 6 min after start
pIC50: −log10 of the molar value.
measured parameter: pIC50

For this compound ( O=C(c1cc2c(F)c(F)ccc2[nH]1)N1CCc2[nH]nc(C3CCCO3)c2C1 (stereo not shown) ), measured pIC50 is > 5.30

For this compound ( "COCC1(N(C)C(=O)c2n[nH]c3c2CN(C(=O)c2cc4c(C)cc(F)cc4[nH]2)CC3)CC1" ), measured pIC50 is > 5.30

For this compound ( "CCNC(=O)c1n[nH]c2c1CN(C(=O)c1cc3ccccc3[nH]1)CC2" ), measured pIC50 is 5.00 to 5.30

For this compound ( "CS(=O)(=O)Nc1n[nH]c2c1CN(C(=O)c1cc3ccccc3[nH]1)CC2" ), measured pIC50 is > 4.00

====

Biological target: HBV core protein (UniProt P03146)
Construct: fused on or other part: BODIPY-FL maleimide label on the C-terminal Cys150
Assay: Biochemical capsid assembly assay (fluorescence quenching)
Set-up: species or system hepatitis B virus
Details: read-out: Assembly Activity (IC50); BODIPY-FL labelled core protein, 300 μM NaCl, read 6 min after start
pIC50: −log10 of the molar value.
measured parameter: pIC50

For this compound ( CN1CCN(C(=O)c2n[nH]c3c2CN(C(=O)c2cc4ccccc4[nH]2)CC3)CC1 [Example 98] ), measured pIC50 is > 4.00

For this compound ( COCC1(N(C)C(=O)c2n[nH]c3c2CN(C(=O)c2cc4c(F)ccc(F)c4[nH]2)CC3)CC1 [Example 297] ), measured pIC50 is > 5.30

For this compound ( CCN(C(=O)c1n[nH]c2c1CN(C(=O)c1cc3ccccc3[nH]1)CC2)C1COC1 [Example 185] ), measured pIC50 is 5.00 to 5.30

For this compound ( CN(C(=O)c1[nH]nc2c1CN(C(=O)c1cc3ccccc3[nH]1)CC2)[C@H]1CCC[C@@H]1O [Example 252] ), measured pIC50 is > 5.30

For this compound ( COC(=O)C1CCN(C(=O)c2n[nH]c3c2CN(C(=O)c2cc4ccccc4[nH]2)CC3)CC1 [Example 132] ), measured pIC50 is > 5.30

For this compound ( O=C(c1cc2ccccc2[nH]1)N1CCc2[nH]nc(C3CCCO3)c2C1 (stereo not shown) [Example 344] ), measured pIC50 is > 5.30

For this compound ( CCNc1n[nH]c2c1CN(C(=O)c1cc3ccccc3[nH]1)CC2 [Example 80] ), measured pIC50 is > 4.00

For this compound ( CN(C)c1n[nH]c2c1CN(C(=O)c1cc3ccccc3[nH]1)CC2 [Example 75] ), measured pIC50 is 5.00 to 5.30

For this compound ( CON(C)C(=O)c1n[nH]c2c1CN(C(=O)c1cc3c(C)cccc3[nH]1)CC2 [Example 131] ), measured pIC50 is > 5.30

For this compound ( O=C(NCCO)c1n[nH]c2c1CN(C(=O)c1cc3ccccc3[nH]1)CC2 [Example 107] ), measured pIC50 is > 4.00

For this compound ( O=C(c1cc2ccccc2[nH]1)N1CCc2[nH]nc(C(=O)N3CCC(F)(F)CC3)c2C1 [Example 190] ), measured pIC50 is > 5.30

For this compound ( [2H]C([2H])([2H])OCC1(N(C)C(=O)c2n[nH]c3c2CN(C(=O)c2cc4ccccc4[nH]2)CC3)CC1 [Example 206] ), measured pIC50 is > 5.30

For this compound ( CN(CCS(C)(=O)=O)C(=O)c1n[nH]c2c1CN(C(=O)c1cc3ccccc3[nH]1)CC2 [Example 150] ), measured pIC50 is > 4.00

For this compound ( CN(CCO)C(=O)c1n[nH]c2c1CN(C(=O)c1cc3ccccc3[nH]1)CC2 [Example 100] ), measured pIC50 is > 5.30

For this compound ( COCC1(N(CC(F)F)C(=O)c2n[nH]c3c2CN(C(=O)c2cc4ccccc4[nH]2)CC3)CC1 [Example 303] ), measured pIC50 is > 5.30

For this compound ( O=C(c1cc2c(C(F)(F)F)cccc2[nH]1)N1CCc2n[nH]c(-c3cscn3)c2C1 [Example 21] ), measured pIC50 is > 4.00
